target: human PPARγ1 (Homo sapiens); experiment: GeneBLAzer PPARγ1 non-DA reporter gene assay
Catalogue of ATVmax: maximal activation% of the tested compounds relative to rosiglitazone values
PROPERTY NAME: ATVmax: maximal activation% of the tested compounds relative to rosiglitazone

- COMPOUND: "Oc1c(I)cc(I)cc1I [2,4,6-TIP, 2,4,6-triiodinated phenol]"
  DATA VALUE: "20%"
- COMPOUND: "CCCCC(CC)COC(=O)c1c(Br)c(Br)c(Br)c(Br)c1C(=O)O (centres unmarked) [TBMEHP]"
  DATA VALUE: "40%"
- COMPOUND: "CCCCOC(=O)c1ccccc1C(=O)OCc1ccccc1 [BzBP, benzylbutyl phthalate]"
  DATA VALUE: "34%"
- COMPOUND: "O=C(O)c1cc(Br)c(Br)c(Br)c1Br [TBBA]"
  DATA VALUE: "20%"
- COMPOUND: "O=P(Oc1ccccc1)(Oc1ccccc1)Oc1ccccc1 [TPP, triphenyl phosphate]"
  DATA VALUE: "43%"
- COMPOUND: "Oc1cc(Br)cc(Br)c1Oc1ccc(Br)cc1Br [6-OH-BDE47]"
  DATA VALUE: "<8%"
- COMPOUND: "[Cl][Sn]([c]1ccccc1)([c]1ccccc1)[c]1ccccc1 [TPT, triphenyltin chloride]"
  DATA VALUE: "54%"
- COMPOUND: "CC(C)(C)c1ccc(OP(=O)(Oc2ccc(C(C)(C)C)cc2)Oc2ccc(C(C)(C)C)cc2)cc1 [TBPP, tris (4,tert-butyl-phenyl) phosphate]"
  DATA VALUE: "12%"
- COMPOUND: "Oc1c(Br)cc(Br)cc1Br [2,4,6-TBP, 2,4,6-tribrominated phenol]"
  DATA VALUE: "18%"
- COMPOUND: "CCCCC/C=C/C=C1/C(=O)C=C[C@@H]1C/C=C\\CCCC(=O)O [15d-PJG2, reference compound]"
  DATA VALUE: "85%"
- COMPOUND: "Oc1c(Br)ccc(Oc2ccc(Br)cc2Br)c1Br [3-OH-BDE47]"
  DATA VALUE: "42%"
